Documented IC50 across a set of molecules
Tested on: KG-1 cells
Assay procedure: Antiproliferative activity against KG-1 cells (CCK8)
Assay type: cell-based
Settings: Homo sapiens, 72 h incubation, CCK8 method
Measured metric: IC50

> print(dat)
                                    molecule  measured.metric  result.value
 1  O=C1CCC(n2ncc3cc(CNC(=O)C4=Cc5c(F)cccc5OC4)ccc3c2=O)C(=O)N1 (stereo not drawn)             IC50       ≤ 30 nM
 2  CC(C)(C)c1ccc2c(c1)C=C(C(=O)NCc1ccc3c(=O)n(C4CCC(=O)NC4=O)ncc3c1)CO2 (stereo not drawn)             IC50       ≤ 30 nM
 3  COc1cccc2c1C=C(C(=O)NCc1ccc3c(=O)n(C4CCC(=O)NC4=O)ncc3c1)CO2 (stereo not drawn)             IC50       ≤ 30 nM
 4  O=C1CCC(n2ncc3cc(CNC(=O)C4=Cc5ccccc5OC4)ccc3c2=O)C(=O)N1 (stereo not drawn)             IC50  30 to 300 nM
 5  O=C1CCC(n2ncc3cc(CNC(=O)C4CNc5ccccc5C4)ccc3c2=O)C(=O)N1 (stereo not drawn)             IC50  30 to 300 nM
 6  O=C1CCC(n2ncc3cc(CNC(=O)C4=Cc5cc(-c6ccccc6)ccc5OC4)ccc3c2=O)C(=O)N1 (stereo not drawn)             IC50       ≤ 30 nM
 7  O=C1CCC(n2ncc3cc(CNC(=O)C4COc5ccc(OC(F)(F)F)cc5C4)ccc3c2=O)C(=O)N1 (stereo not drawn)             IC50       ≤ 30 nM
 8  O=C1CCC(n2ncc3cc(CNC(=O)C4=Cc5cc(Cl)ccc5OC4)ccc3c2=O)C(=O)N1 (stereo not drawn)             IC50  30 to 300 nM
 9  O=C1CCC(n2ncc3cc(NC(=O)C4=Cc5cc(F)ccc5OC4)ccc3c2=O)C(=O)N1 (stereo not drawn)             IC50  30 to 300 nM
10  O=C1CCC(n2ncc3cc(CNC(=O)C4=Cc5c(cccc5C(F)(F)F)OC4)ccc3c2=O)C(=O)N1 (stereo not drawn)             IC50       ≤ 30 nM
11  Cc1ccc2c(c1)C=C(C(=O)NCc1ccc3c(=O)n(C4CCC(=O)NC4=O)ncc3c1)CO2 (stereo not drawn)             IC50  30 to 300 nM
12  Cc1cc2c(cc1Cl)C=C(C(=O)NCc1ccc3c(=O)n(C4CCC(=O)NC4=O)ncc3c1)CO2 (stereo not drawn)             IC50  30 to 300 nM
13  O=C1CCC(n2ncc3cc(CNC(=O)C4=Cc5ccc(F)cc5OC4)ccc3c2=O)C(=O)N1 (stereo not drawn)             IC50  30 to 300 nM
14  O=C1CCC(n2ncc3cc(CNC(=O)C4=Cc5cccc(OC(F)(F)F)c5OC4)ccc3c2=O)C(=O)N1 (stereo not drawn)             IC50       ≤ 30 nM
15  COc1ccc2c(c1)C=C(C(=O)NCc1ccc3c(=O)n(C4CCC(=O)NC4=O)ncc3c1)CO2 (stereo not drawn)             IC50  30 to 300 nM
